For each record, write down the corresponding koff.
# TEST_TARGET: T1, biotinylated CD3 epsilon:delta heterodimer protein (Amsbio AMS.CDD-H52WO) (Homo sapiens (Human), UniProt P07766 23-126; P04234 22-105)
# T1 construct: also called CD3 heterodimer
# EXPERIMENT_DESCRIPTION: BLI (Octet), CD3 on SA sensor, Fab analyte;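 note: biolayer interferometry with biotinylated CD3 epsilon:delta captured on streptavidin sensors, Fab analyte at several concentrations up to 300 nM, 100 s association then 300 s dissociation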
Your answer should be a number followed by the unit of measure.

Input line: Report koff for huSP34.9.1 Fab-HF (Fab, V domains shown, also called HC9+LC1) VH: EVQLVESGGGLVQPGGSLRLSCAASGFTFSDYAMNWVRQAPGKGLEWVGRTRSKYNSYATYYAASVKGRFTISRDDSKNSLYLQMNSLKTEDTAVYYCVRHGNFGNSYVSWFAVWGQGTLVTVSS VL: QAVVTQEPSLTVSPGGTVTLTCRSSTGAVTTSNYANWVQQKPGQAPRGLIGGTNKRAPWTPARFSGSLIGDKAALTLSGAQPEDEAEYYCALWYSNLWVFGGGTKLTVL
Output line: 0.0779 s⁻¹

Input line: State its koff: huSP34.10.2 Fab-HF (Fab, V domains shown, also called HC10+LC2) VH: EVQLVESGGGLVQPGGSLRLSCAASGFTFSDYAMNWVRQAPGKGLEWVGRTRSKYNSYATYYAASVKGRFTISRDDSKNSLYLQMNSLKTEDTAVYYCVRHGNFGHSYVSWFAVWGQGTLVTVSS VL: QAVVTQEPSLTVSPGGTVTLTCGSSTGAVTTSNYANWVQQKPGQAPRGLIGGTSNRAPWTPARFSGSLLGGKAALTLSGAQPEDEAEYYCALWYSNLWVFGGGTKLTVL
Output line: 0.0664 s⁻¹
